assay.protocol: in vivo
run.parameters: rat, in vivo, po, female
experimental.endpoint: LD50 (mg/kg)
Answer with a number only, understood to be in mg/kg.

Q: // LD50 lookup, key: O=C(O)CCCCC1CCSS1 (racemic) [alpha-lipoic acid (racemate), 1,2-dithia-cyclopentane-3-valeric acid]
A: 1210

* * *

assay.protocol: in vivo
run.parameters: in vivo, iv; rat
experimental.endpoint: LD50 (mg/kg)
Answer with a number only, understood to be in mg/kg.

Q: // LD50 lookup, key: `O=C1O[C@H]([C@@H](O)CO)C(O)=C1O`
A: 1000

* * *

assay.protocol: in vivo
run.parameters: in vivo, po; rat
experimental.endpoint: LD50

Q: // LD50 lookup, key: `O=C1O[C@H]([C@@H](O)CO)C(O)=C1O`
A: > 5000 mg/kg

* * *

assay.protocol: in vivo
run.parameters: rat, in vivo, po, male
experimental.endpoint: LD50 (mg/kg)
Answer with a number only, understood to be in mg/kg.

Q: // LD50 lookup, key: O=C(O)CCCCC1CCSS1 (racemic) [alpha-lipoic acid (racemate), 1,2-dithia-cyclopentane-3-valeric acid]
A: 1190

* * *

assay.protocol: in vivo
run.parameters: mouse, in vivo, po, oral administration, LITCHFIELD and WILCOXON method, read-out: acute toxicity LD50
experimental.endpoint: LD50

O=C(O)CCCC[C@@H]1CCSS1 : > 1000 mg/kg

Please find the next molecule below.
Q: // LD50 lookup, key: `O=C(O)CCCC[C@H]1CCSS1`
A: > 1000 mg/kg

* * *

assay.protocol: in vivo
run.parameters: in vivo, iv; mouse; read-out: LD50
experimental.endpoint: LD50 (mg/kg)
Answer with a number only, understood to be in mg/kg.

Q: // LD50 lookup, key: `O=C1O[C@H]([C@@H](O)CO)C(O)=C1O`
A: 1060

Data provenance: patent US5569670A
